Ref: ChEMBL document CHEMBL1221290

# Target or system: 5-hydroxytryptamine receptor 2A (Homo sapiens, UniProt P28223)
# Sequence (P28223 whole entry): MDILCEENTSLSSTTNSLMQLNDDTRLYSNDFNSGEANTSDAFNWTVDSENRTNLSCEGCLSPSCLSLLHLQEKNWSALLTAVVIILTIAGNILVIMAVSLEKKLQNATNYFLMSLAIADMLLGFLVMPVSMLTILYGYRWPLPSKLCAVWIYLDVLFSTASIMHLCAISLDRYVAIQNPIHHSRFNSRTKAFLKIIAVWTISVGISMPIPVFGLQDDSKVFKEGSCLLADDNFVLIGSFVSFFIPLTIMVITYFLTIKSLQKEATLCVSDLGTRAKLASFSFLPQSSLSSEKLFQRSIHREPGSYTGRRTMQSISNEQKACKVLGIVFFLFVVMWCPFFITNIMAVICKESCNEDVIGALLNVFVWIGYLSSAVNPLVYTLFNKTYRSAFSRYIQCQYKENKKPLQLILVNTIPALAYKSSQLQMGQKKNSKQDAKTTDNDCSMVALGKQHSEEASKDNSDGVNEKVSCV
# Test description: Antagonist activity at human 5HT2A receptor expressed in HEK cells assessed as intracellular calcium luminescence by aequorin assay
Measure name: Ki (nM)

What value of measured Ki is listed for `CC(C)(CN1CCN(C2=Cc3ccccc3Cn3ccnc32)CC1)C(=O)O` ?
79.4

// same read-out, input: O=C(O)C1CCC(N2CCN(C3=Cc4ccccc4Cn4ccnc43)CC2)CC1 (stereo in doubt; 16)
501

a. O=C(O)C1CCC(N2CCN(C3=Cc4ccccc4Cn4ccnc43)CC2)CC1 (single isomer, unassigned; isomer 1)
b. C=C(CN1CCN(C2=Cc3ccccc3Cn3ccnc32)CC1)C(=O)O
c. Cc1cn2c(n1)C(N1CCN(CC(C)(C)C(=O)O)CC1)=Cc1ccccc1C2
d. O=C(O)CCN1CCN(C2=Cc3ccccc3Cn3ccnc32)CC1
I would appreciate it if you could sort these 4 compounds by Ki, starting from the smallest number. Dear reader, please state the labels in the requested order.
c, b, d, a
(c: 126 nM, b: 200 nM, d: 316 nM, a: 631 nM)
